- Procedure summary: clinical
- Format: in vivo, human
- Details: both sexes, human, in vivo, Vz/F
Outcome measure: Vd/F (L)
Just the number in L, nothing appended.

query: Vd/F for C[C@H](CCC(=O)NCCS(=O)(=O)O)[C@H]1CC[C@H]2[C@@H]3[C@@H](O)C[C@@H]4C[C@H](O)CC[C@]4(C)[C@H]3CC[C@]12C [TURSO, taurursodiol] ?
result: 1600

----------
- Procedure summary: clinical
- Assay type: in vivo, human
- Details: both sexes, human, in vivo, elimination half-lives (range)
- Description: • Protocol AMX3500: sparse sampling in 87 subjects with ALS. Approximately 2 samples are collected for each subject, 1 or 4 hours post dose following 12 and 24 weeks of treatment. • Protocol A35-002: rich sampling in 14 healthy adults. Approximately 21 samples are collected over 24 hours for each subject on two occasions, once following a high fat meal and the other under fasting conditions. […] Any departures from the intended regimen were recorded in the eCRFs. […]
Outcome measure: half-life

query: Given the molecule `C[C@H](CCC(=O)NCCS(=O)(=O)O)[C@H]1CC[C@H]2[C@@H]3[C@@H](O)C[C@@H]4C[C@H](O)CC[C@]4(C)[C@H]3CC[C@]12C` , what is its reported half-life?
result: 151 to 523 min

query: Record request: half-life value, item O=C(O)CCCc1ccccc1 [PB, sodium phenylbutyrate]
result: 24 to 42.6 min

query: For `C[C@H](CCC(=O)O)[C@H]1CC[C@H]2[C@@H]3[C@@H](O)C[C@@H]4C[C@H](O)CC[C@]4(C)[C@H]3CC[C@]12C` , what is its reported half-life?
result: 181 to 455 min

----------
- Procedure summary: clinical
- Format: in vivo, human
- Details: both sexes, human, in vivo, Steady-state plasma concentration
For each of the compounds below, state its concentration at 4 h.
Answer with a number only, understood to be in ng/mL.

query: Return reported concentration at 4 h; argument: `C[C@H](CCC(=O)NCC(=O)O)[C@H]1CC[C@H]2[C@@H]3[C@@H](O)C[C@@H]4C[C@H](O)CC[C@]4(C)[C@H]3CC[C@]12C`
result: 1320

query: Any idea what concentration at 4 h was measured for `C[C@H](CCC(=O)NCCS(=O)(=O)O)[C@H]1CC[C@H]2[C@@H]3[C@@H](O)C[C@@H]4C[C@H](O)CC[C@]4(C)[C@H]3CC[C@]12C` ?
result: 566

query: Fill in the blank: the reported concentration at 4 h of `C[C@H](CCC(=O)O)[C@H]1CC[C@H]2[C@@H]3[C@@H](O)C[C@@H]4C[C@H](O)CC[C@]4(C)[C@H]3CC[C@]12C` is ____.
result: 1170

----------
- Procedure summary: clinical
- Type: in vivo, human
- Details: both sexes, human, in vivo, po, Cmax
Outcome measure: Cmax (ng/mL)
Dear colleague, please return just the value in ng/mL, with no unit written.

query: Returns the measured Cmax for the input molecule. Input: O=C(O)CCCc1ccccc1 [PB, sodium phenylbutyrate]
result: 188000

query: Return reported Cmax; argument: C[C@H](CCC(=O)NCCS(=O)(=O)O)[C@H]1CC[C@H]2[C@@H]3[C@@H](O)C[C@@H]4C[C@H](O)CC[C@]4(C)[C@H]3CC[C@]12C [TURSO, taurursodiol]
result: 741

query: What Cmax value was documented for this molecule, C[C@H](CCC(=O)O)[C@H]1CC[C@H]2[C@@H]3[C@@H](O)C[C@@H]4C[C@H](O)CC[C@]4(C)[C@H]3CC[C@]12C [UDCA, ursodeoxycholic acid] ?
result: 639

query: If you can, please state the reported Cmax value of C[C@H](CCC(=O)NCC(=O)O)[C@H]1CC[C@H]2[C@@H]3[C@@H](O)C[C@@H]4C[C@H](O)CC[C@]4(C)[C@H]3CC[C@]12C [GUDCA, glycoursodeoxycholic acid] .
result: 381
